Recorded values, source patent US20230391760A1.

Assayed System: GLP-1 Receptor (Homo sapiens)
Assay Overview: GLP-1R agonist cAMP stimulation assay (HEK293/GLP1R/CRE-LUC cells, cAMP dynamic 2 Kit)
Recorded Conditions: HEK293/CRE-Luc cell line stably expressing the GLP-1 Receptor, 30 min at 37° C.
Endpoint Name: pEC50
pEC50 field: float, defined as -log10 of concentration (mol/L).

| Compound | Assayed System | Observed Result |
| --- | --- | --- |
| Fc1cc(Cl)ccc1COc1ncccc1C1=CCN(Cc2nc3cc(-c4nnc(C(F)(F)F)[nH]4)ccc3n2C[C@@H]2CCO2)CC1 [Compound 390a] | GLP-1 Receptor (Homo sapiens) | 9.32 |
| O=C(O)Cc1ccc2c(c1)nc(CN1CC=C(c3cccc(OCc4ccc(Cl)cc4F)n3)CC1)n2C[C@@H]1CCO1 [Compound 112a] | GLP-1 Receptor (Homo sapiens) | 8.20 |

Now look at this one.
State its pEC50: CC1(c2ccc(C#N)cc2F)Oc2cccc(C3CCN(Cc4nc5cc(-c6noc(=O)[nH]6)ncc5n4C[C@@H]4CCO4)CC3)c2O1 (stereo partly drawn) [Compound 341a]
10.59

* * *

Assayed System: GLP-1 Receptor (Homo sapiens)
Assay Overview: GLP-1R agonist cAMP stimulation assay (HEK293/GLP1R/CRE-LUC cells, cAMP dynamic 2 Kit)
Recorded Conditions: HEK293/CRE-Luc cell line stably expressing the GLP-1 Receptor, 30 min at 37° C.
Endpoint Name: EC50 (nM)
# unit: nM | format: bare number

State its EC50: Fc1cc(Cl)ccc1[C@H]1COc2cccc(C3CCN(Cc4nc5cc(-c6nnc(C(F)(F)F)[nH]6)nnc5n4C[C@@H]4CCO4)CC3)c2O1 [Compound 523a]
0.14

State its EC50: N#Cc1ccc(COc2cc(C3CCN(Cc4nc5cc(-c6nnc(C(F)(F)F)[nH]6)ncc5n4C[C@@H]4CCO4)CC3)ccc2F)c(F)c1 [Compound 471a]
0.11

State its EC50: C[C@]1(c2ccc(Cl)cc2F)Oc2cccc(C3CCN(Cc4nc5cc(-c6nnc(C#N)[nH]6)ncc5n4C[C@@H]4CCO4)CC3)c2O1 [Compound 444a]
0.0037

State its EC50: O=C(Nc1ccc2c(c1)nc(CN1CCC(c3cccc(OCc4ccc(Cl)cc4F)n3)CC1)n2C[C@@H]1CCO1)c1ccc(F)cn1 [Compound 190a]
1.2

State its EC50: N#Cc1ccc(COc2cccc(C3=CCN(Cc4nc5cc(-c6noc(=O)[nH]6)cnc5n4C[C@@H]4CCO4)CC3)n2)c(F)c1 [Compound 322a]
0.078

State its EC50: Fc1cc(C(F)(F)F)ccc1COc1cccc(C2CCN(Cc3nc4cc(-c5nnc(C(F)(F)F)[nH]5)ncc4n3C[C@@H]3CCO3)CC2)n1 [Compound 497a]
0.034

* * *

Reported EC50 values for a set of compounds
Assayed System: GLP-1 Receptor (Homo sapiens, UniProt P43220)
Sequence (P43220 24-463, species assumed): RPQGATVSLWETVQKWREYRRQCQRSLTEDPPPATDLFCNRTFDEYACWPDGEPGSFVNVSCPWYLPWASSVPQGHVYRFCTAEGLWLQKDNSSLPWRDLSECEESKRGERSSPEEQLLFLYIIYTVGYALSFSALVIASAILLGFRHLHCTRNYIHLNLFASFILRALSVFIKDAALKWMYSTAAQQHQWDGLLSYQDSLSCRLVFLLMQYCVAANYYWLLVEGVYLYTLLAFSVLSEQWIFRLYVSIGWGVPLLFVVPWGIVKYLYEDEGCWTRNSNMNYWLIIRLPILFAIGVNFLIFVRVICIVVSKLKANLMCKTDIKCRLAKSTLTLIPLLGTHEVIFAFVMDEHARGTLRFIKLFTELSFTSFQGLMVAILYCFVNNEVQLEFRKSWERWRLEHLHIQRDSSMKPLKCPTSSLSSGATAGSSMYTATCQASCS
Assay Overview: GLP-1R agonist cAMP stimulation assay (HEK293/GLP1R/CRE-LUC cells, cAMP dynamic 2 Kit)
Recorded Conditions: HEK293/CRE-Luc cell line stably expressing the GLP-1 Receptor, 30 min at 37° C.
I'd appreciate it if you included the unit after the number.

# count of solved cases: 3
| Compound | EC50 |
| --- | --- |
| Cc1cnccc1C(=O)Nc1ccc2c(c1)nc(CN1CCC(c3cccc(OCc4ccc(Cl)cc4F)n3)CC1)n2C[C@@H]1CCO1 [Compound 178a] | 0.57 nM |
| C[C@]1(c2ccc(Cl)cn2)Oc2cccc(C3CCN(Cc4nc5cc(-c6noc(=O)[nH]6)nnc5n4C[C@@H]4CCO4)CC3)c2O1 [Compound 463a] | 0.35 nM |
| N#Cc1cccc(C(=O)Nc2ccc3c(c2)nc(CN2CCC(c4cccc(OCc5ccc(Cl)cc5F)n4)CC2)n3C[C@@H]2CCO2)c1 [Compound 169a] | 0.92 nM |

State its EC50: Fc1cc(Cl)ccc1COc1cccc(C2CCN(Cc3nc4cc(-c5nnc(C(F)(F)F)[nH]5)nnc4n3C[C@@H]3CCO3)CC2)n1 [Compound 486a]
0.038 nM

State its EC50: Cc1ccc(C(=O)Nc2ccc3c(c2)nc(CN2CCC(c4cccc(OCc5ccc(Cl)cc5F)n4)CC2)n3C[C@@H]2CCO2)cn1 [Compound 173a]
0.26 nM

* * *

Assayed System: UniProtKB P43220
Assay Overview: GLP-1R agonist cAMP stimulation assay (HEK293/GLP1R/CRE-LUC cells, cAMP dynamic 2 Kit)
Type: cell-based
Recorded Conditions: HEK293/CRE-Luc cell line stably expressing the GLP-1 Receptor, 30 min at 37° C.
Source text: Activation of GLP-1 receptor is known to stimulate cyclic AMP (cAMP) production in cells which indicates primary coupling to the Gαs subunit of the G protein heterotrimeric complex. […] To optimize functional activity directed toward Gαs coupling, a HEK293/CRE-Luc cell line developed by HDB stably expressing the GLP-1 Receptor was used. […]
Endpoint Name: pEC50
pEC50 field: float, defined as -log10 of concentration (mol/L).

# count of solved cases: 5
| Molecule | Assayed System | Endpoint Name | Observed Result |
| --- | --- | --- | --- |
| Fc1cc(Cl)ccc1COc1cccc(C2CCN(Cc3nc4cc(-c5nnc(C(F)(F)F)[nH]5)cnc4n3C[C@@H]3CCO3)CC2F)n1 (stereo partly drawn) [Compound 500a] | UniProtKB P43220 | pEC50 | 10.11 |
| CC1(c2ccc(Cl)cc2F)Oc2cccc(C3CCN(Cc4nc5cc(-c6nnc(C(F)(F)F)[nH]6)ccc5n4C[C@@H]4CCO4)CC3)c2O1 (mixture of isomers) [Compound 229a] | UniProtKB P43220 | pEC50 | 10.34 |
| N#Cc1ccc(COc2cccc(C3CCN(Cc4nc5cc(-c6nnc(C(F)(F)F)[nH]6)ncc5n4C[C@@H]4CCO4)CC3)n2)c(F)c1 [Compound 313a] | UniProtKB P43220 | pEC50 | 10.92 |
| CC1(c2ccc(Cl)cc2)Oc2cccc(C3=CCN(Cc4nc5cc(-c6nnc(C(F)(F)F)[nH]6)ccc5n4CC4(C#N)CC4)CC3)c2O1 (stereo not drawn) [Compound 413] | UniProtKB P43220 | pEC50 | 9.22 |
| Cc1cc(C(=O)Nc2ccc3c(c2)nc(CN2CCC(c4cccc(OCc5ccc(Cl)cc5F)n4)CC2)n3C[C@@H]2CCO2)nn1C [Compound 187a] | UniProtKB P43220 | pEC50 | 9.06 |

State its pEC50: COC(=O)Nc1ccc2c(c1)nc(CN1CCC(c3cccc(OCc4ccc(Cl)cc4F)n3)CC1)n2C[C@@H]1CCO1 [Compound 146a]
9.31

* * *

Assayed System: GLP-1 Receptor (Homo sapiens, UniProt P43220)
Assay Overview: GLP-1R agonist cAMP stimulation assay (HEK293/GLP1R/CRE-LUC cells, cAMP dynamic 2 Kit)
Recorded Conditions: HEK293/CRE-Luc cell line stably expressing the GLP-1 Receptor, 30 min at 37° C.
Endpoint Name: EC50 (nM)
# unit: nM | format: bare number

# count of solved cases: 2
| Compound | Assayed System | EC50 / nM |
| --- | --- | --- |
| CC(C)C(=O)Nc1ccc2c(c1)nc(CN1CCC(c3cccc(OCc4ccc(Cl)cc4F)n3)CC1)n2C[C@@H]1CCO1 [Compound 105a] | GLP-1 Receptor (Homo sapiens, UniProt P43220) | 0.175 |
| CC1(c2ccc(Cl)cc2F)Oc2cccc(C3CCN(Cc4nc5cc(-c6nnc(C(F)(F)F)[nH]6)cnc5n4C[C@@H]4CCCO4)CC3)c2O1 (stereo partly drawn) [Compound 246a] | GLP-1 Receptor (Homo sapiens, UniProt P43220) | 0.23 |

State its EC50: C[C@]1(c2ccc(Cl)cc2F)Oc2cccc(C3CCN(Cc4nc5cc(C(N)=O)nnc5n4C[C@@H]4CCO4)CC3)c2O1 [Compound 432a]
6.9

State its EC50: C[C@]1(c2ccc(Cl)cn2)Oc2cccc(C3CCN(Cc4nc5cc(-c6nnn[nH]6)nnc5n4C[C@@H]4CCO4)CC3)c2O1 [Compound 461a]
0.23

State its EC50: CC1(c2ccc(Cl)cc2F)Oc2cccc(C3CCN(Cc4nc5cc(-c6cn(CCS(C)(=O)=O)nn6)ccc5n4C[C@@H]4CCO4)CC3)c2O1 (stereo partly drawn) [Compound 250a]
0.11

State its EC50: N#Cc1nnc(-c2cc3nc(CN4CCC(c5cccc(OCc6ccc(Cl)cc6F)n5)CC4)n(C[C@@H]4CCO4)c3nn2)[nH]1 [Compound 526a]
0.017

* * *

Reported pEC50 values for a set of compounds
Assayed System: GLP-1 Receptor (Homo sapiens)
Assay Overview: GLP-1R agonist cAMP stimulation assay (HEK293/GLP1R/CRE-LUC cells, cAMP dynamic 2 Kit)
Recorded Conditions: HEK293/CRE-Luc cell line stably expressing the GLP-1 Receptor, 30 min at 37° C.
pEC50 field: float, defined as -log10 of concentration (mol/L).

# count of solved cases: 2
| Compound | Assayed System | Observed Result |
| --- | --- | --- |
| O=C(Cc1ccccc1)Nc1ccc2c(c1)nc(CN1CCC(c3cccc(OCc4ccc(Cl)cc4F)n3)CC1)n2C[C@@H]1CCO1 [Compound 130a] | GLP-1 Receptor (Homo sapiens) | 8.29 |
| N#Cc1ccc(COc2cccc(C3=CCN(Cc4nc5cc(-c6nnc(C(F)(F)F)[nH]6)cnc5n4C[C@@H]4CCO4)CC3)n2)c(F)c1 [Compound 321a] | GLP-1 Receptor (Homo sapiens) | 10.66 |

Now look at this one.
State its pEC50: C[C@]1(c2ccc(Cl)cc2F)Oc2cccc(C3CCN(Cc4nc5cc(-c6noc(=O)[nH]6)nnc5n4C[C@@H]4CCO4)CC3)c2O1 [Compound 348a]
10.21
